System: Enterococcus faecium
Test: Antimicrobial activity against vancomycin-resistant Enterococcus faecium ATCC 51559 assessed as microbial growth inhibition
Assay type: functional
measuredMetric: MIC

Reported MIC for CN[C@H](CC(C)C)C(=O)N[C@H]1C(=O)N[C@@H](CC(N)=O)C(=O)N[C@H]2C(=O)N[C@H]3C(=O)N[C@H](C(=O)N[C@H](C(=O)NCCCNC(=O)[C@H](O)[C@@H](O)[C@H](O[C@H]4O[C@@H](CO)[C@@H](O)[C@@H](O)[C@@H]4O)[C@H](O)CO)c4cc(O)cc(O)c4-c4cc3ccc4O)[C@H](O)c3ccc(c(Cl)c3)Oc3cc2cc(c3O[C@@H]2O[C@H](CO)[C@@H](O)[C@H](O)[C@H]2O[C@H]2C[C@](C)(N)[C@H](O)[C@H](C)O2)Oc2ccc(cc2Cl)[C@H]1O : what is it? 36 µM

---

Experiment: Cytotoxicity against human HepG2 cells assessed as lethal dose by CellTox Green cytotoxicity assay
Format: toxicity, cell-based
Conditions: read-out: LD50 (the source's name)
measuredMetric: CC50

Any idea what CC50 was measured for O=C(Cc1ccccc1)N[C@@H]1C(=O)N2C(C(=O)O)=C(CSc3ccccn3)CS[C@H]12 ? > 500 µM

---

Assay: Cytotoxicity against human CCD 19Lu cells assessed as lethal dose by CellTox Green cytotoxicity assay
Format: toxicity, cell-based
Conditions: read-out: LD50 (the source's name)
measuredMetric: CC50

Need CC50, item O=C(Cc1ccccc1)N[C@@H]1C(=O)N2C(C(=O)O)=C(CSc3ccccn3)CS[C@H]12 > 500 µM

---

Tested on: Enterococcus faecium
Test: Antimicrobial activity against vancomycin-resistant Enterococcus faecium ATCC 51559 assessed as microbial growth inhibition
Assay type: functional
Here, each record is paired with measured MIC data.
Your answer is read as µM, so omit the unit and give the number.

Example cases with answers are listed next.
CN[C@H](CC(C)C)C(=O)N[C@H]1C(=O)N[C@@H](CC(N)=O)C(=O)N[C@H]2C(=O)N[C@H]3C(=O)N[C@H](C(=O)N[C@H](C(=O)NCCCNC(=O)[C@H](O)[C@@H](O)[C@H](O)[C@H](O)CO)c4cc(O)cc(O)c4-c4cc3ccc4O)[C@H](O)c3ccc(c(Cl)c3)Oc3cc2cc(c3O[C@@H]2O[C@H](CO)[C@@H](O)[C@H](O)[C@H]2O[C@H]2C[C@](C)(N)[C@H](O)[C@H](C)O2)Oc2ccc(cc2Cl)[C@H]1O: 54
CCCCCCCCCCN[C@@]1(C)C[C@H](O[C@H]2[C@H](Oc3c4cc5cc3Oc3ccc(cc3Cl)[C@@H](O)[C@@H](NC(=O)[C@@H](CC(C)C)NC)C(=O)N[C@@H](CC(N)=O)C(=O)N[C@H]5C(=O)N[C@H]3C(=O)N[C@H](C(=O)N[C@H](C(=O)NCCCNC(=O)[C@H](O)[C@@H](O)[C@H](O[C@H]5O[C@@H](CO)[C@@H](O)[C@@H](O)[C@@H]5O)[C@H](O)CO)c5cc(O)cc(O)c5-c5cc3ccc5O)[C@H](O)c3ccc(c(Cl)c3)O4)O[C@H](CO)[C@@H](O)[C@@H]2O)O[C@@H](C)[C@H]1O: 0.2

# next molecule below
Give recorded MIC with Enterococcus faecium for the following molecule: CN[C@H](CC(C)C)C(=O)N[C@H]1C(=O)N[C@@H](CC(N)=O)C(=O)N[C@H]2C(=O)N[C@H]3C(=O)N[C@H](C(=O)N[C@H](C(=O)O)c4cc(O)cc(O)c4-c4cc3ccc4O)[C@H](O)c3ccc(c(Cl)c3)Oc3cc2cc(c3O[C@@H]2O[C@H](CO)[C@@H](O)[C@H](O)[C@H]2O[C@H]2C[C@](C)(N)[C@H](O)[C@H](C)O2)Oc2ccc(cc2Cl)[C@H]1O [VANCOMYCIN] 750

---

Test system: Salmonella enteritidis
Test: Antimicrobial activity against Salmonella enterica subsp. enterica serovar Enteritidis assessed as increase in microbial growth inhibition
Assay type: functional
Some molecules, each annotated with its measured MIC.
Please format your answer as a value with the unit trailing.

Consider the reported MIC for these molecules:
CC1=C(C(=O)O)N2C(=O)[C@@H](NC(=O)[C@H](NC(=O)CCCc3cn(CCOCCOCCOCCNC(=O)c4cc(O)c(O)c(C(=O)N[C@H]5COC(=O)[C@@H](NC(=O)c6cccc(O)c6O)COC(=O)[C@@H](NC(=O)c6cccc(O)c6O)COC5=O)c4)nn3)c3ccccc3)[C@H]2SC1: 0.01 µM
CC1(C)S[C@@H]2[C@H](NC(=O)[C@H](NC(=O)CCCc3cn(CCOCCOCCOCCNC(=O)c4cc(O)c(O)c(C(=O)N[C@H]5COC(=O)[C@@H](NC(=O)c6cccc(O)c6O)COC(=O)[C@@H](NC(=O)c6cccc(O)c6O)COC5=O)c4)nn3)c3ccccc3)C(=O)N2[C@H]1C(=O)O: 0.01 µM

Lab note: next molecule to report on.
Fill blank: measured MIC of the molecule CC1(C)S[C@@H]2[C@H](NC(=O)[C@H](NC(=O)CCCc3cn(CCOCCOCCOCCNC(=O)c4cc(O)c(O)c(C(=O)N[C@H]5COC(=O)[C@@H](NC(=O)c6cc([C@@H]7O[C@H](CO)[C@@H](O)[C@H](O)[C@H]7O)cc(O)c6O)COC(=O)[C@@H](NC(=O)c6cc([C@@H]7O[C@H](CO)[C@@H](O)[C@H](O)[C@H]7O)cc(O)c6O)COC5=O)c4)nn3)c3ccccc3)C(=O)N2[C@H]1C(=O)O is ____. 0.01 µM

---

Test: Potency index, ratio of test compound LD50 to methotrexate LD50 for cytotoxicity against human L02 cells
Assay type: toxicity, cell-based
*1 amine or outer side, *2 acyl side, *3 side chain or, on linkers, in order; H or OH if unused. Where a SMILES comes first, the peptide text is derived from it. Side-chain parts run from the residue outwards. [ ]: non-standard residue; d: D form. The star is where a group is joined. DAMPA = CN(Cc1cnc2nc(N)nc(N)c2n1)c1ccc(C(=O)*)cc1; Orn(N5-OH,N5-Ac) = CC(=O)N(O)CCC[C@H](N)C(=O)O; γGlu = O=C(O)[C@H](CCC(=O)[*:2])N[*:1]; Ethylenediamine = C(CN[*:2])N[*:1]
measuredMetric: selectivity ratio

Looking for the measured selectivity ratio of CC(=O)N(O)CCC[C@H](NC(=O)[C@H](CCCN(O)C(C)=O)NC(=O)[C@@H](N)CCCN(O)C(C)=O)C(=O)N[C@@H](CCC(=O)NCCNC(=O)CC[C@H](NC(=O)c1ccc(N(C)Cc2cnc3nc(N)nc(N)c3n2)cc1)C(=O)O)C(=O)O (H-[Orn(N5-OH,N5-Ac)][Orn(N5-OH,N5-Ac)][Orn(N5-OH,N5-Ac)]E([Ethylenediamine-γGlu-DAMPA])-OH) , can you help? 2310

---

Below, each of the molecules is paired with its reported CC50 value.
Assay: Cytotoxicity against human L02 assessed as lethal dose
Type: toxicity, cell-based
Conditions: L02 cells, read-out: LD50 (the source's name)
*1 amine or outer side, *2 acyl side, *3 side chain or, on linkers, in order; H or OH if unused. Where a SMILES comes first, the peptide text is derived from it. Side-chain parts run from the residue outwards. [ ]: non-standard residue; d: D form. The star is where a group is joined. DAMPA = CN(Cc1cnc2nc(N)nc(N)c2n1)c1ccc(C(=O)*)cc1; Orn(N5-OH,N5-Ac) = CC(=O)N(O)CCC[C@H](N)C(=O)O; γGlu = O=C(O)[C@H](CCC(=O)[*:2])N[*:1]; Ethylenediamine = C(CN[*:2])N[*:1]
Use µM as the unit, but write only the number.

CC(=O)N(O)CCC[C@H](NC(=O)[C@H](CCCN(O)C(C)=O)NC(=O)[C@@H](N)CCCN(O)C(C)=O)C(=O)N[C@@H](CCC(=O)NCCNC(=O)CC[C@H](NC(=O)c1ccc(N(C)Cc2cnc3nc(N)nc(N)c3n2)cc1)C(=O)O)C(=O)O (H-[Orn(N5-OH,N5-Ac)][Orn(N5-OH,N5-Ac)][Orn(N5-OH,N5-Ac)]E([Ethylenediamine-γGlu-DAMPA])-OH): 18.5

Dear colleague, I am looking for the recorded CC50 of the following molecule: CN(Cc1cnc2nc(N)nc(N)c2n1)c1ccc(C(=O)N[C@@H](CCC(=O)O)C(=O)O)cc1 [METHOTREXATE] 0.008

---

System: Acinetobacter baumannii
Test: Antimicrobial activity against Acinetobacter baumannii ATCC 17978 assessed as microbial growth inhibition under iron-deficient condition
Format: functional
measuredMetric: MIC (µg/mL)
Numeric only. Scale: µg/mL

The examples below pair each entry with its known result.
N[C@@H](C(=O)N[C@@H]1C(=O)N2C(C(=O)O)=C(Cl)CS[C@H]12)c1ccccc1 [CEFACLOR ANHYDROUS]: 64
C[C@H]1OC(c2cccc(O)c2O)=N[C@@H]1C(=O)N[C@@H](COC(=O)c1cc(N[C@@H](C(=O)N[C@@H]2C(=O)N3C(C(=O)O)=C(Cl)CS[C@H]23)c2ccccc2)cc(O)c1O)C(=O)NCCCCN(O)C=O: 0.5
CC(=O)N(O)CCCCNC(=O)[C@H](COC(=O)c1cccc(O)c1O)NC(=O)[C@H]1N=C(c2cc(CCCCC(=O)N[C@@H](C(=O)N[C@@H]3C(=O)N4C(C(=O)O)=C(Cl)CS[C@H]34)c3ccccc3)cc(O)c2O)O[C@@H]1C: 0.5

Okay, now this compound:
Value lookup for MIC; key = C[C@H]1OC(c2cccc(O)c2O)=N[C@@H]1C(=O)N[C@@H](COC(=O)c1cccc(O)c1O)C(=O)NCCCCN(O)C(=O)N[C@@H](C(=O)N[C@@H]1C(=O)N2C(C(=O)O)=C(Cl)CS[C@H]12)c1ccccc1 0.5
